Target: recombinant alpha-glucosidase II (murine full-length glucosidase II, alpha and beta subunits, Glu 2) (Mus musculus)
Construct: made in house; host or cells: HEK-293T cells transduced with BacMam viruses (75% alpha, 25% beta); protein harvested from culture supernatant
Sequence (O08795 15-521): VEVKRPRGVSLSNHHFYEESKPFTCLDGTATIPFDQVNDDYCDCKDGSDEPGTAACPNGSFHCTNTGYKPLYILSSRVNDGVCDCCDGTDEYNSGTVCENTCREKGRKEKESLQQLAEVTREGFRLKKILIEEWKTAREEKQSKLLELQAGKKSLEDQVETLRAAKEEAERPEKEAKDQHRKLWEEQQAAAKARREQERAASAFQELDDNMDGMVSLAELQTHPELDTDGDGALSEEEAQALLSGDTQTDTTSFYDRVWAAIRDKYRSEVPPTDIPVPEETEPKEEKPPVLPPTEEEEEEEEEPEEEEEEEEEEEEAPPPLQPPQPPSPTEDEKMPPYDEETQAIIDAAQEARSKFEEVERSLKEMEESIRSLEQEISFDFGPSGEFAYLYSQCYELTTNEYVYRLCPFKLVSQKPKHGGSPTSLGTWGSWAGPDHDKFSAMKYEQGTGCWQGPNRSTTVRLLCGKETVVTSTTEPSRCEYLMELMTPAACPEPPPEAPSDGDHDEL
Sequence (Q8BHN3 33-944): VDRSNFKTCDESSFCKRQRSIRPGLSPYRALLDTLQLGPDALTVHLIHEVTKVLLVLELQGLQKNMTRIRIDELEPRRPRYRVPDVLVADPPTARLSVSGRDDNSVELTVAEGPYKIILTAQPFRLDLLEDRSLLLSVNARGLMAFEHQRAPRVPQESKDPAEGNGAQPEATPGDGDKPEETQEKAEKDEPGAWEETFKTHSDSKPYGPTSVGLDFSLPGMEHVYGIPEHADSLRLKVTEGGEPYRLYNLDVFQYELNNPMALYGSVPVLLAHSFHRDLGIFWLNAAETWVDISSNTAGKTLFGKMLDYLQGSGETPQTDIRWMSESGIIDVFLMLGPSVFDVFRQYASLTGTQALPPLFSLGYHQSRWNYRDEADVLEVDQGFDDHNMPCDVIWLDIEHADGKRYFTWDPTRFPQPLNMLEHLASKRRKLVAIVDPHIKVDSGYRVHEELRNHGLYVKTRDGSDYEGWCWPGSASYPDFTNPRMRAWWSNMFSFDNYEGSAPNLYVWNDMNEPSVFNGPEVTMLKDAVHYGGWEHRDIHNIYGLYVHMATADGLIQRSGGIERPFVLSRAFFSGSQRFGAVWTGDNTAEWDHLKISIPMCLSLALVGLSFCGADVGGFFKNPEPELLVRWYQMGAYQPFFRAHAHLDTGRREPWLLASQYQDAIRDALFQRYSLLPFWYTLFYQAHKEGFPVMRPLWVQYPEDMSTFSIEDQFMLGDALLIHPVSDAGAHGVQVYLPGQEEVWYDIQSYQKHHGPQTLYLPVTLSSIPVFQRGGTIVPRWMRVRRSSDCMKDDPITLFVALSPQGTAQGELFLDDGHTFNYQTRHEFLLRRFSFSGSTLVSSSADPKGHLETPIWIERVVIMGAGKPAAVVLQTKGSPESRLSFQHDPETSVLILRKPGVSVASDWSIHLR
Assay: Alpha-glucosidase II assay (4-methylumbelliferyl-alpha-D-pyranoside substrate, fluorescence)
Format: biochemical
Conditions: Glucosidase 2; read-out: Glu2 IC50
log10 IC50 values by entry
measured-endpoint: log10 IC50 (log10 of the value in nM)

| molecule | value-reported |
| --- | --- |
| [N-]=[N+]=Nc1ccc(NCCc2cccc(CCN3C[C@H](O)[C@@H](O)[C@H](O)[C@H]3CO)c2)c([N+](=O)[O-])c1 | 1.65 |
| Cc1cc(NCc2ccc(CN3C[C@H](O)[C@@H](O)[C@H](O)[C@H]3CO)cc2)cc(-n2ccnn2)c1 | 2.58 |
| COc1cc(C#N)cc(NCCc2ccc(CCN3C[C@H](O)[C@@H](O)[C@H](O)[C@H]3CO)cc2)c1 | 0.70 |
| OC[C@@H]1[C@@H](O)[C@H](O)[C@@H](O)CN1Cc1ccc(CNc2ccc(-c3cccnn3)cc2)cc1 | 2.82 |
| OC[C@@H]1[C@@H](O)[C@H](O)[C@@H](O)CN1CCCCCCNc1cc(Cl)cc(-c2cnccn2)c1 | 0.30 |
| OC[C@@H]1[C@@H](O)[C@H](O)[C@@H](O)CN1Cc1ccc(CNc2ccc(C3=COCCO3)cc2)cc1 | 3.02 |
| Cc1cc(NCc2cccc(CN3C[C@H](O)[C@@H](O)[C@H](O)[C@H]3CO)c2)cc(C2=COCCO2)c1 | 4.68 |
| COc1ccc(CCCCCCCN2C[C@H](O)[C@@H](O)[C@H](O)[C@H]2CO)cc1 | 1.57 |
| Cc1cc(NCc2cccc(CN3C[C@H](O)[C@@H](O)[C@H](O)[C@H]3CO)n2)cc(-c2ncccn2)c1 | 4.51 |
| N#Cc1cc(NCc2cccc(CN3C[C@H](O)[C@@H](O)[C@H](O)[C@H]3CO)c2)cc(-c2cccnn2)c1 | 4.26 |
| O=[N+]([O-])c1cc(CN2CCCO2)ccc1NCc1cccc(CN2C[C@H](O)[C@@H](O)[C@H](O)[C@H]2CO)c1 | 4.65 |
| [N-]=[N+]=Nc1ccc(NCCN2CC(OCCN3C[C@H](O)[C@@H](O)[C@H](O)[C@H]3CO)C2)c([N+](=O)[O-])c1 | 2.73 |
| OC[C@@H]1[C@@H](O)[C@H](O)[C@@H](O)CN1Cc1cccc(CNc2ccc(Br)cc2)c1 | 4.37 |
| [N-]=[N+]=Nc1ccc(NCCN2CCN(CCN3C[C@H](O)[C@@H](O)[C@H](O)[C@H]3CO)CC2)c([N+](=O)[O-])c1 | 2.74 |
| Nc1ccc(NCCc2ccccc2CCN2C[C@H](O)[C@@H](O)[C@H](O)[C@H]2CO)c([N+](=O)[O-])c1Cl | 2.03 |
| COc1cc(NCCc2ccc(CCN3C[C@H](O)[C@@H](O)[C@H](O)[C@H]3CO)cc2)cc(-c2ccco2)c1 | 2.74 |
| Cc1cc(NCc2ccc(CN3C[C@H](O)[C@@H](O)[C@H](O)[C@H]3CO)cc2)cc(-c2cccnn2)c1 | 2.25 |
| Cc1cc(NCc2ccc(CN3C[C@H](O)[C@@H](O)[C@H](O)[C@H]3CO)cc2)cc(C2=COCCO2)c1 | 0.48 |
| COc1cc(NCCCCCCN2C[C@H](O)[C@@H](O)[C@H](O)[C@H]2CO)cc(C2CCCO2)c1 (stereo partly drawn) | 1.18 |
| [N-]=[N+]=Nc1ccc(NCCC(O)C(O)CCN2C[C@H](O)[C@@H](O)[C@H](O)[C@H]2CO)c([N+](=O)[O-])c1 (stereo partly drawn) | 1.66 |
| O=[N+]([O-])c1cc(CN2CCCO2)ccc1NCCc1ccc(CCN2C[C@H](O)[C@@H](O)[C@H](O)[C@H]2CO)cc1 | 0.85 |
